Biological target: Nuclear receptor coactivator 3 (Homo sapiens) (UniProt Q9Y6Q9)
Sequence (Q9Y6Q9 whole entry, looked up): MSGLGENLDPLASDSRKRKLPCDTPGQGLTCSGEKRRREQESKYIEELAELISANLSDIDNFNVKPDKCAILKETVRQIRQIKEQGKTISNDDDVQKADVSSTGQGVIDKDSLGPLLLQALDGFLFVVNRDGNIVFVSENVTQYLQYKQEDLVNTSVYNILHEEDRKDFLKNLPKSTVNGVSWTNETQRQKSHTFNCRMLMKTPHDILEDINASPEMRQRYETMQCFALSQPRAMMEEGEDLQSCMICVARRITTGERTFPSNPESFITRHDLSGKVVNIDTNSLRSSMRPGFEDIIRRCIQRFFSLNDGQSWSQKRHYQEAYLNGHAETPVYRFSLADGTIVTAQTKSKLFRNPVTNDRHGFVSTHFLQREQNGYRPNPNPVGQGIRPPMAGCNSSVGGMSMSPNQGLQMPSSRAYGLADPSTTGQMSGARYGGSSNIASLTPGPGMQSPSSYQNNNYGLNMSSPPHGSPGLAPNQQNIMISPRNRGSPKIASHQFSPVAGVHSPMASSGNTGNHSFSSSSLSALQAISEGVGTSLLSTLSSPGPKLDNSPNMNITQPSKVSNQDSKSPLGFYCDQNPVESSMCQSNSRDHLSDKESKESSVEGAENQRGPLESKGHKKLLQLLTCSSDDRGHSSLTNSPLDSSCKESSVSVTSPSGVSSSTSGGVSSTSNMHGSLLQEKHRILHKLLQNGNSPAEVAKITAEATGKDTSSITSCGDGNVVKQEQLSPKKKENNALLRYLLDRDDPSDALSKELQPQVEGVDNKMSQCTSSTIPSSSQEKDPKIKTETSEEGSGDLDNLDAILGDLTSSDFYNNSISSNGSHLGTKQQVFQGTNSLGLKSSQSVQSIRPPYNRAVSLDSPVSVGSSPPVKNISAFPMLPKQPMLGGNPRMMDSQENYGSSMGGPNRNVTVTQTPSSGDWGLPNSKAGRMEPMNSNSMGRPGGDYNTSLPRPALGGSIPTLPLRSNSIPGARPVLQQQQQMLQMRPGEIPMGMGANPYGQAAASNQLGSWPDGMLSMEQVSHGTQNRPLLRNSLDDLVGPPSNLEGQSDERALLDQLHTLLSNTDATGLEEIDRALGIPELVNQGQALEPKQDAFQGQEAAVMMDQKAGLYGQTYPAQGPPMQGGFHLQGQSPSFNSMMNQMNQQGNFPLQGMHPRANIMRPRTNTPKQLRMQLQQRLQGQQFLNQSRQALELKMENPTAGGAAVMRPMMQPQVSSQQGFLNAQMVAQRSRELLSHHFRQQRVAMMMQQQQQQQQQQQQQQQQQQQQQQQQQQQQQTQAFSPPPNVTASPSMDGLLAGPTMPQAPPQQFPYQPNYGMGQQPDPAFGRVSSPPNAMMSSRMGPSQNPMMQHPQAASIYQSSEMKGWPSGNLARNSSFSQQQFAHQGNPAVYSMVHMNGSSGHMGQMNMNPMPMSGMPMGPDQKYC
Assay: SRC3 coactivator transcriptional activity inhibitors, confirmation, cell-based, luminescence, quadruplicate (AID 588792);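 also: 0% = DMSO treated cells and 100% = gossypol at 36 µM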
Details: HEK293 GAL4-SRC3 luciferase reporter, at 3.6 µM
Activity calls are given as the source filed them.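 The calls were made as follows: active = mean inhibition over 43.08%, the solvent-only control mean plus 3 SD; inactive = the rest.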
Hi there, use one of these labels in your reply, thanks! yes (1) for active, no (0) for inactive

## Task Kindly provide the recorded test outcome for the following compound: CN(C)S(=O)(=O)c1ccc(N2CCN(S(=O)(=O)c3ccc(F)cc3)CC2)c(Cl)c1
## Result no (0)

## Task Kindly provide the recorded test outcome for the following compound: COc1cccc(/C=N/Nc2nc3ccccc3n3cnnc23)c1O
## Result no (0)

## Task Kindly provide the recorded test outcome for the following compound: CC1Cc2cc(-c3csc(NC(=O)Cc4cccs4)n3)ccc2N1S(C)(=O)=O (stereo unspecified)
## Result no (0)

## Task Kindly provide the recorded test outcome for the following compound: Cc1cccc(-n2c(N)c(-c3nc4ccccc4n3C)c3nc4ccccc4nc32)c1
## Result no (0)

## Task Kindly provide the recorded test outcome for the following compound: Cc1nnsc1C(=O)N/N=C/c1ccc2ccccc2c1O
## Result yes (1)

## Task Kindly provide the recorded test outcome for the following compound: C(=NNc1ccc2ccccc2n1)c1ccccn1
## Result yes (1)
